// reported pIC50 per item
Test system: HeLa
Assay details: Cytotoxicity against human HeLa cells after 44 hrs by SRB assay
Format: functional, cell-based
pIC50: −log10 of the molar value.

[
  {
    "Smiles repr": "CC(=O)O[C@H]1CC[C@@]2(C)C(=CC(=O)[C@H]3[C@@H]4CCC[C@@]4(C)CC[C@@H]32)C1",
    "Assay target": "HeLa",
    "pIC50": 4.47
  },
  {
    "Smiles repr": "C[C@@]12CCC[C@H]1[C@@H]1/C(=N\\O)C=C3C=CCC[C@]3(C)[C@H]1CC2",
    "Assay target": "HeLa",
    "pIC50": 4.65
  },
  {
    "Smiles repr": "CC(=O)O[C@H]1CC[C@@]2(C)C(=C/C(=N\\O)[C@H]3[C@@H]4CCC[C@@]4(C)CC[C@@H]32)C1",
    "Assay target": "HeLa",
    "pIC50": 4.89
  },
  {
    "Smiles repr": "C[C@@]12CCC[C@H]1[C@@H]1C(=O)C=C3C=CCC[C@]3(C)[C@H]1CC2",
    "Assay target": "HeLa",
    "pIC50": 4.20
  }
]
